Where do these numbers come from? They come from patent US10450314B2.

systemTested: RORγ (Homo sapiens, UniProt P51449)
protocolDescription: RORγ Reporter Gene Assay (RGA), luciferase transactivation in transiently transfected HEK 293 cells
conditionDescription: HEK 293 cells cotransfected with pGL4.3 luc2P/GAL4UAS and pBIND Gal4DBD hRORC LBD; 20-24 h incubation
The following compounds are listed with their measured pIC50 values.
Expect pIC50 as a plain number equal to -log10 of the molar concentration.

compound	pIC50
CC[C@H](C)n1c(=O)c(NCc2ccc(S(=O)(=O)CC)nc2)nc2c(C)nc(-c3c(C)ncnc3C3CC3)nc21	7.02
CC[C@H](C)n1c(=O)c(NCc2ccc(S(N)(=O)=O)cn2)nc2c(C)nc(-c3c(C)ncnc3C3CC3)nc21	6.57
CCS(=O)(=O)c1cnc(CNc2nc3c(C)nc(-c4c(OC)ncnc4C4CC4)nc3n([C@@H](C)C(F)(F)F)c2=O)nc1	6.85
CC[C@@H](C)n1c(=O)c(NCc2ccc(S(=N)(=O)CC)cc2)nc2c(C)nc(-c3c(C)ncnc3C3CC3)nc21 (single isomer, unassigned) [Example 26a]	6.96
CCS(=O)(=O)c1ccc(CNc2nc3c(C)nc(-c4c(C)ncnc4C4CC4)nc3n([C@@H](C)C(F)(F)F)c2=O)cn1	6.65
CC[C@H](C)n1c(=O)c(NCc2ccc(S(N)(=O)=O)cn2)nc2c(C)nc(-c3c(OC)ncnc3C3CC3)nc21	6.73
CCS(=N)(=O)c1ccc(CNc2nc3c(C)nc(-c4c(C)ncnc4C4CC4)nc3n([C@@H](C)C(F)(F)F)c2=O)cc1 (single isomer, unassigned) [Example 34b]	6.77
CC[C@@H](C)n1c(=O)c(NCc2ccc(S(=O)(=O)CC)cn2)nc2c(OC)nc(-c3c(C)ncnc3C3CC3)nc21	5.72

Continue with the next compound.
-- ask Answer with the recorded pIC50 for the compound listed here: CCS(=O)(=O)c1cnc(CNc2nc3c(C)nc(-c4c(OC)ncnc4C4CC4)nc3n([C@@H](C)C3CC3)c2=O)nc1
-- reply 7.01

---

protocolDescription: Human liver microsome (HLM) metabolic stability assay
Format: in vitro ADME
conditionDescription: human liver microsomes, 1 uM compound, 37° C., 60 min; % hepatic blood flow
The entries below come with measured HLM (% Qh) values attached.

>>> df
                                   molecule  assayresult
0  CCS(=O)(=O)c1ccc(CNc2nc3c(C)nc(-c4c(C)ncnc4C4CC4)nc3n([C@@H](C)C3CC3)c2=O)cn1 [Example 74]     <24 % Qh
1  Cc1ncnc(C2CC2)c1-c1nc(C)c2nc(NCc3ccc(S(N)(=O)=O)nc3)c(=O)n([C@@H](C)C(F)(F)F)c2n1 [Example 98]     <24 % Qh
2  Cc1ncnc(C2CC2)c1-c1nc(C)c2nc(NCc3ccc(S(C)(=N)=O)cn3)c(=O)n([C@@H](C)C3CC3)c2n1 (single isomer, unassigned) [Example 43a]     <24 % Qh
3  CC[C@@H](C)n1c(=O)c(NCc2ccc(S(=O)(=O)CC)cn2)nc2c(C)nc(-c3c(C)ncnc3C3CC3)nc21 [Example 65]     <24 % Qh
4  CC[C@@H](C)n1c(=O)c(NCc2ccc(S(C)(=O)=O)cn2)nc2c(CO)nc(-c3c(C)ncnc3C3CC3)nc21 [Example 52]     <24 % Qh

The record that follows has no HLM (% Qh) shown yet.
-- ask Tell me HLM (% Qh) reported for COc1ncnc(C2CC2)c1-c1nc(C)c2nc(NCc3ccc(S(C)(=O)=O)nc3)c(=O)n([C@@H](C)C(F)(F)F)c2n1 [Example 19]
-- reply 62 % Qh

---

protocolDescription: Human liver microsome (HLM) metabolic stability assay
Type: in vitro ADME
conditionDescription: human liver microsomes, 1 uM compound, 37° C., 60 min; % hepatic blood flow
endpoint: HLM (% Qh)

-- ask Respond only with HLM (% Qh) recorded for COc1ncnc(C2CC2)c1-c1nc(C)c2nc(NCc3ccc(S(C)(=N)=O)cn3)c(=O)n([C@@H](C)C(F)(F)F)c2n1 (single isomer, unassigned) [Example 105a]
-- reply <24 % Qh

-- ask // Input: Cc1ncnc(C2CC2)c1-c1nc(C)c2nc(NCc3ccc(S(C)(=O)=O)cn3)c(=O)n([C@@H](C)C3CC3)c2n1 . Output its HLM (% Qh) only.
-- reply <24 % Qh

-- ask Give the value of HLM (% Qh) reported for the following: CC[C@@H](C)n1c(=O)c(NCc2ccc(S(=N)(=O)CC)cc2)nc2c(C)nc(-c3c(OC)ncnc3C3CC3)nc21 (single isomer, unassigned) [Example 29a]
-- reply 73 % Qh

-- ask Respond only with HLM (% Qh) recorded for CC[C@H](C)n1c(=O)c(NCc2ccc(S(N)(=O)=O)cn2)nc2c(C)nc(-c3c(OC)ncnc3C3CC3)nc21
-- reply <24 % Qh

-- ask Output measured HLM (% Qh) for this item: COc1ncnc(C2CC2)c1-c1nc(C)c2nc(NCc3ccc(S(C)(=O)=O)nc3)c(=O)n([C@@H](C)C3CC3)c2n1
-- reply <24 % Qh

-- ask Consider the compound CC[C@@H](C)n1c(=O)c(NCc2ccc(S(=N)(=O)CC)cc2)nc2c(C)nc(-c3c(C)ncnc3C3CC3)nc21 (single isomer, unassigned) [Example 26b] and give its recorded HLM (% Qh).
-- reply 25 % Qh

---

systemTested: RORγ (Homo sapiens)
Sequence (P51449 269-508 limits assumed): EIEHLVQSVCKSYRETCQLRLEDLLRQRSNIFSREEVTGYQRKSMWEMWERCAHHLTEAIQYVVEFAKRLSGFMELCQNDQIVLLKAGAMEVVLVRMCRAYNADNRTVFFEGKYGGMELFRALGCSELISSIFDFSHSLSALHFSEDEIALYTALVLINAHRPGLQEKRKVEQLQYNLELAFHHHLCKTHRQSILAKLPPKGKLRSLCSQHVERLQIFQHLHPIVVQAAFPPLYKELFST
protocolDescription: RORγ Reporter Gene Assay (RGA), luciferase transactivation in transiently transfected HEK 293 cells
conditionDescription: HEK 293 cells cotransfected with pGL4.3 luc2P/GAL4UAS and pBIND Gal4DBD hRORC LBD; 20-24 h incubation
endpoint: IC50 (nM)
Number in nM, nothing else.

Please review the entries below; each comes with its answer.
molecule	unit	assayResult
Cc1ncnc(C2CC2)c1-c1nc(C)c2nc(NCc3ccc(S(C)(=O)=O)nc3)c(=O)n([C@@H](C)C3CC3)c2n1 [Example 7]	nM	70
CCS(=O)(=O)c1ccc(CNc2nc3c(C)nc(-c4c(OC)ncnc4C4CC4)nc3n([C@@H](C)C(F)(F)F)c2=O)nc1 [Example 88]	nM	102
Cc1ncnc(C2CC2)c1-c1nc(C)c2nc(NCc3ccc(S(C)(=N)=O)cc3)c(=O)n([C@@H](C)C3CC3)c2n1 (single isomer, unassigned) [Example 27b]	nM	265
CCS(=N)(=O)c1ccc(CNc2nc3c(C)nc(-c4c(OC)ncnc4C4CC4)nc3n([C@@H](C)C(F)(F)F)c2=O)nc1 (single isomer, unassigned) [Example 101b]	nM	315
Cc1ncnc(C2CC2)c1-c1nc(C)c2nc(NCc3ccc(S(C)(=N)=O)cc3)c(=O)n([C@@H](C)C(F)(F)F)c2n1 (single isomer, unassigned) [Example 91b]	nM	255
COc1ncnc(C2CC2)c1-c1nc(C)c2nc(NCc3ccc(S(N)(=O)=O)cn3)c(=O)n([C@@H](C)C(F)(F)F)c2n1 [Example 95]	nM	150
CC[C@@H](C)n1c(=O)c(NCc2cnc(S(C)(=O)=O)cn2)nc2c(C)nc(-c3c(C)ncnc3C3CC3)nc21 [Example 55]	nM	265
CCS(=N)(=O)c1ccc(CNc2nc3c(C)nc(-c4c(C)ncnc4C4CC4)nc3n([C@@H](C)C(F)(F)F)c2=O)nc1 (single isomer, unassigned) [Example 102a]	nM	535

-- ask In one line, give reported IC50 of the entry CCS(=O)(=O)c1ccc(CNc2nc3c(C)nc(-c4c(C)ncnc4C4CC4)nc3n([C@@H](C)CF)c2=O)nc1 [Example 48] .
-- reply 1200

-- ask Supply IC50 value. Item: CC[C@@H](C)n1c(=O)c(NCc2ccc(S(C)(=O)=O)cn2)nc2c(CF)nc(-c3c(C)ncnc3C3CC3)nc21 [Example 54]
-- reply 225

-- ask Determine from records and report IC50 for CC[C@@H](C)n1c(=O)c(NCc2ccc(S(C)(=O)=O)cn2)nc2c(COC(C)=O)nc(-c3c(C)ncnc3C3CC3)nc21 [Example 47]
-- reply 1050

-- ask Give me measured IC50, please, for this molecule: CCS(=O)(=O)c1cnc(CNc2nc3c(C)nc(-c4c(C)ncnc4C4CC4)nc3n(C(C)C(F)F)c2=O)nc1 (stereo not shown) [Example 89]
-- reply 225

-- ask Give reported IC50 value for CCS(=N)(=O)c1ccc(CNc2nc3c(C)nc(-c4c(C)ncnc4C4CC4)nc3n([C@@H](C)C(F)(F)F)c2=O)cc1 (single isomer, unassigned) [Example 34a]
-- reply 210

-- ask Indicate its recorded IC50; the molecule in question is CCS(=O)(=O)c1ccc(CNc2nc3c(C)nc(-c4c(OC)ncnc4C4CC4)nc3n(CC(C)C)c2=O)nc1 [Example 80]
-- reply 255

-- ask Look up IC50 of COc1ncnc(C2CC2)c1-c1nc(C)c2nc(NCc3ccc(S(C)(=O)=O)nc3)c(=O)n([C@@H](C)C(F)(F)F)c2n1 [Example 19] and report it.
-- reply 165

-- ask Answer with the recorded IC50 of COc1ncnc(C2CC2)c1-c1nc(C)c2nc(NCc3ccc(S(C)(=O)=O)nc3)c(=O)n([C@@H](C)C3CC3)c2n1 [Example 8] only.
-- reply 75

-- ask Please report IC50 for the following molecule: Cc1ncnc(C2CC2)c1-c1nc(C)c2nc(NCc3ccc(S(C)(=O)=O)cn3)c(=O)n(C(C)C(F)F)c2n1 (stereo not shown) [Example 90]
-- reply 235

-- ask Specify reported IC50 for the molecule shown: Cc1ncnc(C2CC2)c1-c1nc(C)c2nc(NCc3ccc(S(N)(=O)=O)cn3)c(=O)n([C@@H](C)C(F)(F)F)c2n1 [Example 96]
-- reply 280

-- ask Find the measured IC50 of Cc1ncnc(C2CC2)c1-c1nc(C)c2nc(NCc3ccc(S(C)(=N)=O)cc3)c(=O)n([C@@H](C)C3CC3)c2n1 (single isomer, unassigned) [Example 27a] and report it.
-- reply 210

-- ask Report IC50, nothing else, for this molecule: CCS(=N)(=O)c1ccc(CNc2nc3c(C)nc(-c4c(C)ncnc4C4CC4)nc3n([C@@H](C)C3CC3)c2=O)nc1 (single isomer, unassigned) [Example 42b]
-- reply 390

-- ask Fill in reported IC50 for this entry: CC[C@@H](C)n1c(=O)c(NCc2ncc(S(C)(=O)=O)cn2)nc2c(C)nc(-c3c(C)ncnc3C3CC3)nc21 [Example 57]
-- reply 500

-- ask Supply IC50 value. Item: CCS(=O)(=O)c1ccc(CNc2nc3c(C)nc(-c4c(C)ncnc4C4CC4)nc3n([C@@H](C)C3CC3)c2=O)cn1 [Example 74]
-- reply 77

-- ask Read the entry Cc1ncnc(C2CC2)c1-c1nc(C)c2nc(NCc3ccc(S(C)(=N)=O)cc3)c(=O)n([C@@H](C)C(F)(F)F)c2n1 (single isomer, unassigned) [Example 91a] and write its reported IC50.
-- reply 295

-- ask Hello, please tell me recorded IC50 for this one: Cc1ncnc(C2CC2)c1-c1nc(C)c2nc(NCc3ccc(S(C)(=O)=O)cn3)c(=O)n([C@@H](C)C(F)(F)F)c2n1 [Example 18]
-- reply 175

-- ask State, in one line, measured IC50 of Cc1ncnc(C2CC2)c1-c1nc(C)c2nc(NCc3ccc(S(N)(=O)=O)cn3)c(=O)n([C@@H](C)C3CC3)c2n1 [Example 61]
-- reply 185
